Read-out: Urokinase-type plasminogen activator receptor (uPAR), PLAUR (gene 5329)
Assay: BSK_4H_uPAR: BioMAP Diversity Plus: 4H Assay for Urokinase-type plasminogen activator receptor (uPAR) Biomarker Activity (AID 2283030)
Conditions: primary human endothelial cells (HUVEC); actives raise or lower the signal
Description: BSK_4H is a cell-based, multiplexed-readout assay that uses umbilical vein endothelium, a human vascular primary cell, with measurements taken at 24 hours after chemical dosing in a 96-well plate.BSK_4HAR is an assay component measured in the BSK_4H assay. It measures uPAR antibody related to regulation of gene expression using ELISA technology.Data from the assay component BSK_4HAR was analyzed into 1 assay endpoint. […]
Active and inactive are the calls of the source. Rule for the calls: active = hit-call score of the fitted dose curve at least 0.9, where 1 is the maximum; inactive = score below 0.9.
Just give me one of these, please: active, inactive

- compound: "CCCCCCCCCCCCCCCC[N+](C)(C)CC"
  class_assignment: "inactive"
- compound: "CCCCNc1ccc(NCCCC)c2c1C(=O)c1ccccc1C2=O"
  class_assignment: "inactive"
- compound: "O=Nc1ccc(O)cc1"
  class_assignment: "inactive"
- compound: "O=c1c2ccccc2oc2ccccc12"
  class_assignment: "inactive"

Look up the recorded call for CCO[Si](CCCN=C=O)(OCC)OCC in this test. inactive

Look up the recorded call for COc1ccc2nc(N)sc2c1 in this test. inactive

Look up the recorded call for COCc1c(C(C)C)nc(C(C)C)c(/C=C/[C@@H](O)C[C@@H](O)CC(=O)O)c1-c1ccc(F)cc1 in this test. active

---

Assay: CCTE_Shafer_MEA_dev_spike_duration_mean: CCTE's Neural Network Formation Assay for Mean Spike Duration, Shafer Lab (AID 2284051);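 note: mean network spike duration pooled as area under curve over DIV 5 to 12 recordings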
Calls of active or inactive are those of the source. How the source made its calls: active means hit-call score of the fitted dose curve at least 0.9, where 1 is the maximum; inactive means score below 0.9.
Just give me one of these, please: active, inactive

Look up the recorded call for COC(F)(F)C(F)(C(F)(F)F)C(F)(F)F in this test. inactive

Look up the recorded call for CCOC(F)(F)C(F)(F)C(F)(F)C(F)(F)F in this test. inactive

Look up the recorded call for CN(C)c1ccc(C(=N)c2ccc(N(C)C)cc2)cc1 in this test. active

Look up the recorded call for FC(F)=C(F)OC(F)(F)C(F)(F)C(F)(F)F in this test. inactive

Look up the recorded call for c1ccc2c(c1)ccc1cc3c(ccc4ccccc43)cc12 in this test. inactive

---

Assay: ATG_AP_1_CIS: Attagene CIS-FACTORIAL HepG2 Assay for human Activator Protein 1 (AP-1) (AID 2282931)
Conditions: HepG2 Attagene cis-factorial AP-1 reporter mRNA; actives raise or lower the signal
Calls of active or inactive are those of the source. Rule for the calls: active = hit-call score of the fitted dose curve at least 0.9, where 1 is the maximum; inactive = score below 0.9.
Just give me one of these, please: TRUE (active), FALSE (inactive)

For orientation, consider the following solved cases.
- compound: "CC(C)(Oc1ccc(C2CC2(Cl)Cl)cc1)C(=O)O (stereo not given)"
  class_assignment: "FALSE"
- compound: "O=C(Cl)c1cc(C(=O)Cl)cc(C(=O)Cl)c1"
  class_assignment: "FALSE"
- compound: "CCOC(=O)CC(C(C)=O)C(C)=O"
  class_assignment: "FALSE"
- compound: "OC1OCCOC1O (stereo not given)"
  class_assignment: "FALSE"
- compound: "CC1(C)[C@H]2CC[C@]1(C)C(=O)C2"
  class_assignment: "FALSE"

Proceed to the following item.
Look up the recorded call for CCCC(C)CCC(C)=O (stereo not given) in this test. FALSE
